# procedure.text: Immunomodulatory activity in C57BL/6 mouse BMDC assessed as IL-12p40 production at 30 uM after 3 days by FACS flow cytometric analysis (reference value: 260.6 +/- 11.9 pg/mL)
# Assay type: functional
quantity.name: Activity (pg/mL)
Numbers only, in pg/mL.

These solved cases illustrate the format of a correct answer.
CC(C)(O)Cn1cnc2c(N)nc3ccccc3c21 | 839
CCCCc1nc2c(N)nc3ccccc3c2n1CC(C)(C)O | 864
COC(=O)c1ccc2c(c1)nc(N)c1ncn(CC(C)(C)O)c12 | 1773

Could you tell me Activity for each of these compounds? They are listed below.
1. CCOCc1nc2c(N)nc3ccccc3c2n1CC(C)(C)O [RESIQUIMOD]
2. CCCCc1nc2c(N)nc3cc(C(=O)OC)ccc3c2n1CC(C)(C)O
3. CC(C)Cn1cnc2c(N)nc3ccccc3c21 [IMIQUIMOD]

1491
1286
889
